EXPERIMENTAL_SYSTEM: Cyclin-dependent kinase 2/cyclin E1 (Homo sapiens, UniProt P24941)
ASSAY_DETAILS: Inhibition of recombinant human Cdk2 (1 to 298 residues)/human N-terminal GST-tagged cyclinE (1 to 410 residues) expressed in baculovirus expression system using histone H1 as substrate after 90 mins in presence of ATP by kinase-glo assay
pIC50: −log10 of the molar value.
EXPERIMENTAL_ENDPOINT: pIC50

Examples with their reported pIC50 follow.
COMPOUND | EXPERIMENTAL_SYSTEM | EXPERIMENTAL_ENDPOINT | MEASURED_VALUE
CCC1(C)NC(=O)c2sc(-c3ccncc3)cc2N1 (stereo unspecified) | Cyclin-dependent kinase 2/cyclin E1 (Homo sapiens, UniProt P24941) | pIC50 | 5.70
Cc1n[nH]c(C)c1-c1cc2c(s1)C(=O)NC(C)(C)N2C | Cyclin-dependent kinase 2/cyclin E1 (Homo sapiens, UniProt P24941) | pIC50 | 5.96
CN1c2cc(-c3ccncc3)sc2C(=O)NC1(C)C | Cyclin-dependent kinase 2/cyclin E1 (Homo sapiens, UniProt P24941) | pIC50 | 5.68
Cc1c(-c2cn[nH]c2)sc2c1N(C)C(C)(C)NC2=O | Cyclin-dependent kinase 2/cyclin E1 (Homo sapiens, UniProt P24941) | pIC50 | 7.59

(P) O=C1NC2(CCCCC2)Nc2cc(-c3ccncc3)sc21
(Q) CC1(CC(F)(F)F)NC(=O)c2sc(-c3ccncc3)cc2N1 (stereo unspecified)
(R) CC1(C)Nc2cc(-c3ccncc3)sc2C(=O)N1Cc1ccccc1
(S) CN1c2c(sc(-c3cn[nH]c3)c2Br)C(=O)NC1(C)C
(T) O=C1NC2(CCCC2)Nc2cc(-c3ccncc3)sc21
Ordering criterion: pIC50; begin with the maximum. Answer by writing out the labels in the requested order.
S, R, Q, P, T

----------
EXPERIMENTAL_SYSTEM: Cyclin-dependent kinase 2/cyclin E1 (Homo sapiens)
ASSAY_DETAILS: Inhibition of recombinant human Cdk2 (1 to 298 residues)/human N-terminal GST-tagged cyclinE (1 to 410 residues) expressed in baculovirus expression system using histone H1 as substrate after 90 mins in presence of ATP by kinase-glo assay
pIC50: −log10 of the molar value.
EXPERIMENTAL_ENDPOINT: pIC50

Examples with their reported pIC50 follow.
COMPOUND | pIC50
CC(C)C1(C)NC(=O)c2sc(-c3ccncc3)cc2N1 (stereo unspecified) | 5.85
Cc1n[nH]cc1-c1cc2c(s1)C(=O)N[C@]1(CC[C@](O)(c3ccc(F)cc3)CC1)N2 | 6.02
Cc1n[nH]cc1-c1cc2c(s1)C(=O)NC1(CCCCC1)N2 | 5.89
O=C1NC2(CCCCCC2)Nc2cc(-c3ccncc3)sc21 | 5.64

(a) CCc1n[nH]cc1-c1cc2c(s1)C(=O)NC(C)(C)N2C
(b) CC1(C)NC(=O)c2sc(-c3ccncc3)cc2N1
Rank a against b by their pIC50 values and give the higher one. Choose, then provide that item's label.
a

----------
EXPERIMENTAL_SYSTEM: Cyclin-dependent kinase 2/cyclin E1 (Homo sapiens, UniProt P24941)
ASSAY_DETAILS: Inhibition of recombinant human Cdk2 (1 to 298 residues)/human N-terminal GST-tagged cyclinE (1 to 410 residues) expressed in baculovirus expression system using histone H1 as substrate after 90 mins in presence of ATP by kinase-glo assay
pIC50: −log10 of the molar value.
EXPERIMENTAL_ENDPOINT: pIC50

COMPOUND | pIC50
CCCC1(C)NC(=O)c2sc(-c3ccncc3)cc2N1 (stereo unspecified) | 5.70

(I) Cc1n[nH]cc1-c1cc2c(s1)C(=O)N[C@]1(CC[C@](O)(C3CCCCC3)CC1)N2
(II) Cc1n[nH]cc1-c1cc2c(s1)C(=O)NC(C)(C)N2C
(III) CN1c2cc(-c3cn[nH]c3)sc2C(=O)NC1(C)C
(IV) Cc1n[nH]cc1-c1cc2c(s1)C(=O)NC(C)(CC(F)(F)F)N2C (stereo unspecified)
Ordering criterion: pIC50; begin with the maximum. Answer by writing out the labels in the requested order.
III, II, IV, I
